# TESTED_ON: Follicle Stimulating Hormone Receptor (FSHR) (Homo sapiens, UniProt P23945)
# Construct: HA (N)
# EXPERIMENTAL_DETAILS: HTRF cAMP agonist assay, FSHR, transiently transfected CHO-K1 cells
# RUN_PARAMETERS: CHO-K1 cells transiently expressing human FSHR, read-out: IC50 FSHR LANCE CAMP
ATTRIBUTE_MEASURED: IC50 (µM)

Please review the following examples before continuing.
{"SMILES_STRUCTURE": "COc1cc(Cl)cc(-n2ncc3c2-c2cc(-c4cncc(C(N)=O)c4)c(OC)cc2CC3)c1", "TESTED_ON": "Follicle Stimulating Hormone Receptor (FSHR) (Homo sapiens, UniProt P23945)", "IC50, µM": 15.5}
{"SMILES_STRUCTURE": "COc1cc2c(cc1-c1cncc(C(N)=O)c1)-c1c(c(C(=O)N3CC[C@H]4CN(C)C[C@H]43)nn1-c1cc(Cl)cc(Cl)c1)CC2", "TESTED_ON": "Follicle Stimulating Hormone Receptor (FSHR) (Homo sapiens, UniProt P23945)", "IC50, µM": 1.72}

A. COc1cc2c(cc1-c1cncc(C(N)=O)c1)-c1c(c(C(=O)N3CCOCC3(C)C)nn1-c1ccsc1)CC2
B. COc1cc2c(cc1-c1cncc(C(N)=O)c1)-c1c(c(C(=O)N3CCNC[C@H]3C(C)C)nn1-c1cc(Cl)cc(Cl)c1)CC2
Input line: Which item exceeds the other in IC50, A or B ? Identify your pick by its label.
Output line: B

* * *

# TESTED_ON: Follicle Stimulating Hormone Receptor (FSHR) (Homo sapiens)
# Construct: HA (N)
# Sequence (P23945 18-695): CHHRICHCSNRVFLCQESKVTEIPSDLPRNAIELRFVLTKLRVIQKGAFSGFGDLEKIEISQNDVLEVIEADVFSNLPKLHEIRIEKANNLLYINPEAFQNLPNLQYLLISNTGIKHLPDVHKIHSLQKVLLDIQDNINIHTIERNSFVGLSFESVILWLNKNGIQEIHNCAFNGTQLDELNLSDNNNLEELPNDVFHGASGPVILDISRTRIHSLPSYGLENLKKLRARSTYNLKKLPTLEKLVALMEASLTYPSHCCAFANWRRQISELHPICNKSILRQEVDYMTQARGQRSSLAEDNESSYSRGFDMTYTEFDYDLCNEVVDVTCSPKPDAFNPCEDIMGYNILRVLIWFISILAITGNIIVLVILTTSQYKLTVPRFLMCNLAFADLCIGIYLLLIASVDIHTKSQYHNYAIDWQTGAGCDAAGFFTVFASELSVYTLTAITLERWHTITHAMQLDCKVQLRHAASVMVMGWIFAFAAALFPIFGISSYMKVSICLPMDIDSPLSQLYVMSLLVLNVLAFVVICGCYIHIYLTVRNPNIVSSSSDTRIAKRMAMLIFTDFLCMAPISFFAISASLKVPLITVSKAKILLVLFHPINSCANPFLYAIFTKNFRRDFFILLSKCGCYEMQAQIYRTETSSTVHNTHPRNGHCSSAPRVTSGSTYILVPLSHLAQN
# EXPERIMENTAL_DETAILS: HTRF cAMP agonist assay, FSHR, transiently transfected CHO-K1 cells
# RUN_PARAMETERS: CHO-K1 cells transiently expressing human FSHR, read-out: IC50 FSHR LANCE CAMP
ATTRIBUTE_MEASURED: IC50 (nM)

Completed entries (count: 8):
{"MOLECULE": "COc1cc2c(cc1-c1cncc(C#N)c1)-c1c(c(C(=O)N3CCNC(=O)C3(C)C)nn1-c1cc(Cl)cc(Cl)c1)CC2 [Compound 8-26A]", "TESTED_ON": "Follicle Stimulating Hormone Receptor (FSHR) (Homo sapiens)", "ATTRIBUTE_MEASURED": "IC50", "REPORTED": 10.3}
{"MOLECULE": "COc1cc2c(cc1-c1cncc(C(N)=O)c1)-c1c(c(C(=O)N3CCOCC3(C)C)nn1-c1cccnc1)CC2", "TESTED_ON": "Follicle Stimulating Hormone Receptor (FSHR) (Homo sapiens)", "ATTRIBUTE_MEASURED": "IC50", "REPORTED": 40.1}
{"MOLECULE": "COc1cc2c(cc1-c1ccn(C)n1)-c1c(c(C(=O)N(C)C(C)(C)C)nn1-c1cc(Cl)cc(Cl)c1)OC2", "TESTED_ON": "Follicle Stimulating Hormone Receptor (FSHR) (Homo sapiens)", "ATTRIBUTE_MEASURED": "IC50", "REPORTED": 195}
{"MOLECULE": "CCC1C(=O)NCCN1C(=O)c1nn(-c2cc(Cl)cc(Cl)c2)c2c1CCc1cc(OC)c(-c3cncc(C(N)=O)c3)cc1-2 (stereo not shown)", "TESTED_ON": "Follicle Stimulating Hormone Receptor (FSHR) (Homo sapiens)", "ATTRIBUTE_MEASURED": "IC50", "REPORTED": 32.4}
{"MOLECULE": "C[C@H]1CNC(=O)[C@H](C)N1C(=O)c1nn(-c2ccccn2)c2c1CCc1ccc(-c3cccnc3)cc1-2", "TESTED_ON": "Follicle Stimulating Hormone Receptor (FSHR) (Homo sapiens)", "ATTRIBUTE_MEASURED": "IC50", "REPORTED": 6090}
{"MOLECULE": "COc1cc2c(cc1-c1cncc(C(N)=O)c1)-c1c(c(C(=O)N(C)CC(F)(F)F)nn1-c1cc(Cl)cc(Cl)c1)CC2", "TESTED_ON": "Follicle Stimulating Hormone Receptor (FSHR) (Homo sapiens)", "ATTRIBUTE_MEASURED": "IC50", "REPORTED": 6.56}
{"MOLECULE": "COc1cc2c(cc1-c1cncc(C(N)=O)c1)-c1c(c(C(=O)N3CCC4CNCCC43)nn1-c1cc(Cl)cc(Cl)c1)CC2 (stereo not shown)", "TESTED_ON": "Follicle Stimulating Hormone Receptor (FSHR) (Homo sapiens)", "ATTRIBUTE_MEASURED": "IC50", "REPORTED": 457}
{"MOLECULE": "COc1cc(C(N)=O)cc(-c2cc3c(cc2OC)COc2c(C(=O)N(C)C(C)(C)C)nn(-c4cc(Cl)cc(Cl)c4)c2-3)n1", "TESTED_ON": "Follicle Stimulating Hormone Receptor (FSHR) (Homo sapiens)", "ATTRIBUTE_MEASURED": "IC50", "REPORTED": 42}

1. COc1cc2c(cc1-c1cncc(C(N)=O)c1)-c1c(c(C(=O)N3[C@H](C)CNC[C@@H]3C)nn1-c1cc(Cl)cc(Cl)c1)OC2
2. CC1(C)C(=O)NCCN1C(=O)c1nn(-c2cc(Cl)cc(Cl)c2)c2c1CCc1ccc(-c3cncc(C(N)=O)c3)cc1-2
3. COc1cc2c(cc1-c1cncc(C(N)=O)c1)-c1c(c(C(=O)N3CCNCC3(C)C)nn1-c1cc(Cl)cc(Cl)c1)CC2
4. COc1cc2c(cc1-c1cncc(C(N)=O)c1)-c1c(c(C(=O)N3CCNC(=O)C3(C)C)nn1-c1cc(Cl)cc(Cl)c1)S(=O)(=O)C2
Input line: Number of molecules to sort: 4. Sort criterion: IC50, ascending. // respond by listing labels in the order requested
Output line: 1, 3, 4, 2

* * *

# TESTED_ON: Follicle Stimulating Hormone Receptor (FSHR) (Homo sapiens, UniProt P23945)
# Construct: HA (N)
# Sequence (P23945 18-695): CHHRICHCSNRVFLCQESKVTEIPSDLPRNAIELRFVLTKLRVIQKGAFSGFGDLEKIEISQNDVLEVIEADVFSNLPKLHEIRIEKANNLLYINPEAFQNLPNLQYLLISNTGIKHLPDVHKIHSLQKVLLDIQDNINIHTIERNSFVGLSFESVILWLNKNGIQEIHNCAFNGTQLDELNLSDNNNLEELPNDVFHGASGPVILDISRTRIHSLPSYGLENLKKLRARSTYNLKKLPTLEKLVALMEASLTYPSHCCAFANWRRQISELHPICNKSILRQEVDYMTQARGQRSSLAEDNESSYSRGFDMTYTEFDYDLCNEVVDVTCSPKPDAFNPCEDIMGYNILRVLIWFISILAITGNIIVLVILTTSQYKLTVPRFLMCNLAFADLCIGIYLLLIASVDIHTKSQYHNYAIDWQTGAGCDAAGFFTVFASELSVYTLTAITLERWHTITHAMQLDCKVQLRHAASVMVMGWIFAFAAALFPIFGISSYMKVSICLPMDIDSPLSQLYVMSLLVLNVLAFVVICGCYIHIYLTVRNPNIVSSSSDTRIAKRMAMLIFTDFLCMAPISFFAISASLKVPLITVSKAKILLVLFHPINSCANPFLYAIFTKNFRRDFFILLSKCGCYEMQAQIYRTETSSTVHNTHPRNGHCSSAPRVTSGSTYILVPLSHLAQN
# EXPERIMENTAL_DETAILS: HTRF cAMP agonist assay, FSHR, transiently transfected CHO-K1 cells
# RUN_PARAMETERS: CHO-K1 cells transiently expressing human FSHR, read-out: IC50 FSHR LANCE CAMP
ATTRIBUTE_MEASURED: IC50 (nM)

Past entries and their recorded results:
{"MOLECULE": "COc1cc2c(cc1-c1cncc(C(N)=O)c1)-c1c(c(C(=O)N3CCNC(=O)C3(C)C)nn1-c1cc(Cl)cc(Cl)c1)CC2 [Compound 8-26]", "UNIT_INFO": "nM", "IC50": 16.3}
{"MOLECULE": "COc1cc2c(cc1-c1cncc(C(N)=O)c1)-c1c(c(C(=O)N3CCOCC3(C)C)nn1-c1cccnn1)CC2", "UNIT_INFO": "nM", "IC50": 22.5}
{"MOLECULE": "COc1cc2c(cc1-c1cccnc1)-c1c(c(C(=O)N3CCOCC3(C)C)nn1-c1cc(F)cc(F)c1)CO2", "UNIT_INFO": "nM", "IC50": 7.32}
{"MOLECULE": "COc1cc2c(cc1-c1ccn(C)n1)-c1c(c(C(=O)N(C)C(C)(C)C)nn1-c1ccsc1)OC2", "UNIT_INFO": "nM", "IC50": 475}
{"MOLECULE": "COc1cc2c(cc1-c1cncc(C(N)=O)c1)-c1c(c(C(=O)N3[C@H](C)CN(C)C[C@@H]3C)nn1-c1cc(Cl)cc(Cl)c1)CC2", "UNIT_INFO": "nM", "IC50": 14.8}

1. COc1cc2c(cc1-c1cncc(C(N)=O)c1)-c1c(c(C(=O)N3CCN(C4CC4)CC3(C)C)nn1-c1cc(Cl)cc(Cl)c1)CC2
2. COc1cc2c(cc1-c1cncc(C(N)=O)c1)-c1c(c(CN3CCOCC3(C)C)nn1-c1cc(Cl)cc(Cl)c1)CC2
Input line: Return label of the item with the larger IC50. Candidates: 1 , 2 . Respond with the label that goes with your answer.
Output line: 1
(1: 122 nM, 2: 0.976 nM)
